Origin of measurements: ChEMBL document CHEMBL4152305

- assay-target: Quinolone resistance protein NorA (Staphylococcus aureus)
- assay-protocol: Inhibition of Staphylococcus aureus SA-1199B NorA assessed as reduction in EtBr efflux at 50 uM measured over 5 mins by fluorescence assay relative to control
measure: inhibition (%)

| compound-string | observed-value |
| --- | --- |
| CCCOc1ccc(-c2cc(OCCN(CC)CC)c3cc(OCc4ccccc4)ccc3n2)cc1 | 91.1 |
| CCCOc1ccc(-c2cc(OCCN(CC)CC)c3cc(OCCCN4CCOCC4)ccc3n2)cc1 | 91.1 |
| CCCOc1ccc(-c2cc(OCCN(CC)CC)c3cc(O)ccc3n2)cc1 | 95 |
| CCCOc1ccc(-c2cc(OCCN3CCCCC3)c3cc(OCc4ccccc4)ccc3n2)cc1 | 76.3 |
| CCCOc1ccc(-c2cc(OCCN(CC)CC)c3cc(OCCCN(C)C)ccc3n2)cc1 | 80.9 |
